target.entity: T1, hGITR.mmh (human)
T1 construct: soluble monomeric construct; also called human (h) GITR.mmh; monomeric human GITR
T1 chain: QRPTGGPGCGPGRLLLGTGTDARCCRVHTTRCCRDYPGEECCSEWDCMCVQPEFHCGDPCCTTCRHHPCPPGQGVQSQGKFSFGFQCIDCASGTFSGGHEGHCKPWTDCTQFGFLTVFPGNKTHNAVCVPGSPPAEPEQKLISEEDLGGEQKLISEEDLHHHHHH
assay.summary: SPR 37C, mAb capture
Consider the following binders; for each one, report its kon.
Please give a number only; it is taken to be in M⁻¹ s⁻¹.

[ask] Supply measured kon of H1H14495P (antibody, human IgG1, V domains shown, human IgG1 (H1H)) VH: QVQLVESGGGAVQPGTSLRLSCAASGFTFSSFGMHWVRQAPGKGLEWVSVIWYEGSNKYYADSVKGRFTISRDNSRNTLSLQMDSLRVEDTAVYYCARGGELGVNYYYDMDVWGQGTTVTVSS VL: DIQMTQSPSSLSASVGDRVTITCRASQDIKNDLGWFQQKAGKAPKRLFYATSSLQSGVPSRFSGSGSGTEFTLTISSLQPEDFATYYCLQVHSYPRTFGQGTKVEIK in your reply.
[reply] 517000

[ask] Supply measured kon of H4H14476P (antibody, human IgG4, V domains shown, human IgG4 (H4H)) VH: QVQLVESGGGVVQPGRSLRLSCAASGFTFSNYGIHWVRQPPGQGLEWVAVIWYAGSNKFYADSVKGRFTISRDNSKNSAYLQMNSLRAEDTAVYYCARAPLGYYYYGMDVWGQGTTVTVSS VL: DIQMTQSPSSLSASVGDRVTITCRASQGIRNDLGWYQQKPGKAPKRLIYDASSLESGVPSRFSGSGSGTEFTLTISSLQPEDFATYYCLQHNSYPWTFGQGTKVEIK in your reply.
[reply] 392000

[ask] Supply measured kon of H4H14525P (antibody, human IgG4, V domains shown, human IgG4 (H4H)) VH: QVQLVESGGGVVQPGRSLRLSCAASGFTFSSYGMHWVRQAPGKGLEWVAVIWYVGSNKYYGESVKGRFTISRDNSKNTLYLQMNSLRDEDTAIYYCARGGQLGSFYYYGMDVWGQGTTVTVSS VL: DIQMTQSPSSLSASVGDRVTITCRASQGIRNDLGWYQQKPGKAPKRLIYDVSSLQSGVPSRFSGSGSGTEFTLTISSLQPEDLATYYCLQHNSYPWTFGQGTKVEIK in your reply.
[reply] 317000
